- tested system: T1, Soluble heterodimeric CD3 protein (hCD3-epsilon/hCD3-delta) with a human Fc tag (hFcΔAdp/hFc) or a mouse Fc … (human, UniProt P07766 23-126; P04234 22-105)
- T1 construct: also called hCD3ε/δ; not shown: Fc tag: human (hFcΔAdp/hFc); which tag was used in Ta
- T1 sequence (P07766 23-126 limits assumed, stated change not applied, chain 1 of 2): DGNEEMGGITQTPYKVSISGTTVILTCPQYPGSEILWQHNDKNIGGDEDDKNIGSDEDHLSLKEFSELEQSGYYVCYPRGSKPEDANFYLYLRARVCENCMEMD
- T1 sequence (P04234 22-105 limits assumed, stated change not applied, chain 2 of 2): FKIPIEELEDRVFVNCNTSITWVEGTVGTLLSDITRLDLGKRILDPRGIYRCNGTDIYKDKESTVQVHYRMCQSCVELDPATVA
- assay details: SPR Biacore, 25 C, antibody-capture format
Catalogue of kon readings, one per entry.
Your answer is read as M⁻¹ s⁻¹, so omit the unit and give the number.

Solved cases below.
H2M2775N (antibody, V domains shown, Hybridoma antibody, human variable regions, mouse IgG2 Fc) VH: QVQLVESGGGVVQPGRSLRLSCAASGFTFRSFGMHWVRQAPGRGLEWVAMIYFDGKNKYYADSVRGRFTISRDNSKNTLYLEMSSLRAEDTAVYFCARGPGYNWLDPWGQGTLVTVSS VL: EIVMTQSPATLSVSPGERVILSCRASQSISRNLAWYQQKPGQAPRLLIYGATTRATGVPARFSGSGSGTEFTLTISSLQSEDFAVFYCQQYNNRPLTFGGGTEVEIK    69700
H2M2690N (antibody, V domains shown, Hybridoma antibody, human variable regions, mouse IgG2 Fc) VH: EVQLVESGGGLVQPGRSLRLSCAASGFTFDDYTMHWVRQAPGKGLEWVSGISWNSGSIGYADSVKGRFTISRDNAKKSLYLQMNSLRAEDTALYYCAKDNSGYGHYYYGMDVWGQGTTVTVAS VL: EIVMTQSPATLSVSPGERATLSCRASQSVSSNLAWYQQKPGQAPRLLIYGASTRATGIPARFSGSGSGTEFTLTISSLQSEDFAVYYCQHYINWPLTFGGGTKVEIK    9700

The reported value for H2M2777N (antibody, V domains shown, Hybridoma antibody, human variable regions, mouse IgG2 Fc) VH: QVQLVESGGGVVQPGRSLRLSCIASGFTFRSYGMHWVRQAPGKGLEWVAMIYYDGNNKYYADSVRGRFTISRDNSKNTLYLQMNSLRADDTAVYFCARGPGYNWLDPWGQGTLVTVSS VL: EIVMTQSPATLSVSPGERATLSCRASQSVSSNLAWYQQKPGQAPRLLIYGASTRATGIPARFSGSGSGTEFTLTISSLQSEDFAVYYCQQYNNRPLTFGGGTKVEIK in terms of kon is 37000
